The measurements presented in this section are drawn from paper PMC9835228.

molecular target: T1, HER2 protein (human, UniProt P04626 23-652); assay: SPR; Plexera PlexArray HT; sulfhydryl peptides printed on a bare gold chip through the cysteine thiol, blocked with 5% nonfat milk; protein flowed over in PBS (HER2 at 70.4, 35.2, 17.6 and 8.8 nM); regeneration 0.5% H3PO4; EGFR, HER3 and HER4 as controls with the same procedure; conditions: both partners purified
T1 construct: human epidermal growth factor receptor 2 (HER2), soluble protein used as SPR analyte; also called human epidermal growth factor receptor 2

{"columns": ["BINDER", "Kd (nM)"],
 "data": [
  ["KLRLEWNR (HER2-targeting L-peptide H10F; also called parental L-peptide; source: synthetic peptide, bought: GL Biochem Ltd) [Cys-H10F (sulfhydryl form of the L-peptide H10F, KLRLEWNR)]", 70.2]
]}
